tested-system: Glycogen synthase kinase-3 beta (Rattus norvegicus, UniProt P18266)
Sequence (P18266 whole entry): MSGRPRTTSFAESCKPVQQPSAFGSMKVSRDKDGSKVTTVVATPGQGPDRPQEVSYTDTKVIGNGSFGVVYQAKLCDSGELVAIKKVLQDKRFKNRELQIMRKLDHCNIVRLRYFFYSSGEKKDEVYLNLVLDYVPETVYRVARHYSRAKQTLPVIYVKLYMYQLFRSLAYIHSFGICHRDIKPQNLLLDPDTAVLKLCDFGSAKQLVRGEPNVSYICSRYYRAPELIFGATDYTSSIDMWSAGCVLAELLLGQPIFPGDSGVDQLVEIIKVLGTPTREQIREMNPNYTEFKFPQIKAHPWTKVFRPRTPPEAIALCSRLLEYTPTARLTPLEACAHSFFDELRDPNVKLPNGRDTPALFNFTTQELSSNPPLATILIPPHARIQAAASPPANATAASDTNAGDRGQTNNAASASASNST
pIC50: −log10 of the molar value.
measured-endpoint: pIC50

Here are 3 compounds together with their reported answers.
[[record]]
smiles_notation = "CC(C)c1cnn2c(Nc3ccc(S(=O)(=O)N(C)C)cc3)cc(N[C@H]3CC[C@H](N)CC3)nc12"
measured_endpoint = "pIC50"
reported_result = 4.40

[[record]]
smiles_notation = "CC(C)c1cnn2c(Nc3ccc(S(=O)(=O)N(C)C)cc3)cc(O[C@H]3CC[C@H](N)CC3)nc12"
measured_endpoint = "pIC50"
reported_result = 4.55

[[record]]
smiles_notation = "CC(C)c1cnn2c(Nc3ccc(S(C)(=O)=O)cc3)cc(Cl)nc12"
measured_endpoint = "pIC50"
reported_result = 4.96


[P] CN(C)S(=O)(=O)c1ccc(Nc2cc(N[C@H]3CC[C@H](N)CC3)nc3c(C#N)cnn23)cc1
[Q] CC(C)COc1cc(Nc2ccc(S(C)(=O)=O)cc2)n2ncc(C(C)C)c2n1
[R] CS(=O)(=O)c1ccc(Nc2cc(Cl)nc3ccnn23)cc1
Provide the items ranked by increasing pIC50. Present the labels in the sequence the task asks for.
Q, R, P
(Q: 4.92, R: 5.51, P: 6.34)

Numbers sourced from BindingDB's records for doi:10.1016/j.bmcl.2004.10.091.
